The measured values listed here are drawn from paper PMC8949600.

# MIC listing for each entry below
Tested on: E. faecalis (NCTC 12697)
Type: cell-based
Assay setup: NCTC 12697
Ends that are not written are not given here.

substance="FVDLKKIANIL-NH2 [Peptide T1CEh-t]" property_label=MIC value_reported="> 512 µM"
substance="FVDLKKIANILNSIF-NH2 [Temporin-1CEh]" property_label=MIC value_reported="32 µM"
substance="KKFVPLKKIANIL-NH2 [Peptide T1CEh-KKP]" property_label=MIC value_reported="> 512 µM"
substance="KKWVPWKKIANIL-NH2 [Peptide T1CEh-KKPWW]" property_label=MIC value_reported="128 µM"
substance="KKWVPLKKIANIL-NH2 [Peptide T1CEh-KKPW]" property_label=MIC value_reported="> 512 µM"
substance="KKFVDLKKIANIL-NH2 [Peptide T1CEh-KK]" property_label=MIC value_reported="64 µM"

# context switch: different substance, same MIC
Query: If you can, please state the reported MIC value of FVDLKKIANII-NH2 [Peptide T1CEa-t] .
Reply: > 512 µM

====

# MBC listing for each entry below
Tested on: MRSA (NCTC 12493)
Format: cell-based
Assay setup: NCTC 12493
Ends that are not written are not given here.
// return numeric value only (unit: µM, not printed)

substance="KKWVPLKKIANIL-NH2 [Peptide T1CEh-KKPW]" property_label=MBC unit_tag=µM value_reported=64
substance="KKFVPLKKIANIL-NH2 [Peptide T1CEh-KKP]" property_label=MBC unit_tag=µM value_reported=256
substance="FVDLKKIANILNSIF-NH2 [Temporin-1CEh]" property_label=MBC unit_tag=µM value_reported=16

# context switch: different substance, same MBC
Query: If you can, please state the reported MBC value of KKWVPWKKIANIL-NH2 [Peptide T1CEh-KKPWW] .
Reply: 256

====

Test system: P. aeruginosa (ATCC 27853)
Assay type: cell-based
Assay setup: ATCC 27853
Ends that are not written are not given here.
# MBC listing for each entry below
// return numeric value only (unit: µM, not printed)

substance="KKWVPLKKIANIL-NH2 [Peptide T1CEh-KKPW]" value_reported=64
substance="FVDLKKIANILNSIF-NH2 [Temporin-1CEh]" value_reported=256
substance="KKFVDLKKIANIL-NH2 [Peptide T1CEh-KK]" value_reported=256

# context switch: different substance, same MBC
Query: If you can, please state the reported MBC value of KKWVPWKKIANIL-NH2 [Peptide T1CEh-KKPWW] .
Reply: 16

====

System: E. coli (ATCC 8739)
Assay type: cell-based
Assay setup: ATCC 8739
Description: A measure of 5 × 10^5 CFU/mL of bacterial suspension including 2-fold dilution peptides (ranging from 1 µM to 512 µM) was incubated in 96-well plates for 16–20 h at 37 °C. For the positive and negative control, 200 mg/L of final concentration of norfloxacin and 1% DMSO were applied, respectively. […] Subsequently, 10 µL of the solution in each clear well was dropped on a Mueller–Hinton agar (MHA) plate and incubated at 37 °C for 16–20 h. […]
Ends that are not written are not given here.
# MBC listing for each entry below
// return numeric value only (unit: µM, not printed)

Query: If you can, please state the reported MBC value of KKFVPLKKIANIL-NH2 [Peptide T1CEh-KKP] .
Reply: 128

Query: If you can, please state the reported MBC value of KKWVPLKKIANIL-NH2 [Peptide T1CEh-KKPW] .
Reply: 16

Query: If you can, please state the reported MBC value of KKWVPWKKIANIL-NH2 [Peptide T1CEh-KKPWW] .
Reply: 4

Query: If you can, please state the reported MBC value of KKFVDLKKIANIL-NH2 [Peptide T1CEh-KK] .
Reply: 16
